test system: ASPC-1 tumor-bearing mice; assay: Biodistribution of radionuclide labeled complexes in ASPC-1 tumor-bearing mice; assay type: in vivo, BALB/c nude mice; conditions: Lung, 72 h
readout_name: % ID/g (72 h) Lung (% ID/g)
Lab book: enter the figure in % ID/g, no units written.

# compound, endpoint_value
rows = [
    ("COc1cccc(OC)c1-c1cc(C(=O)NC2(C(=O)O)C3CC4CC(C3)CC2C4)nn1-c1ccc(NCCOCCOCCNC(=O)CN2CCN(CC(=O)[O-])CCN(CC(=O)[O-])CCN(CC(=O)[O-])CC2)cc1C(C)C.[177Lu+3] (stereo not drawn) [^177Lu-I-10]", 0.05),
    ("COc1cccc(OC)c1-c1cc(C(=O)NC2(C(=O)O)C3CC4CC(C3)CC2C4)nn1-c1ccc(NCCCN(C)CCCNC(=O)CN2CCN(CC(=O)[O-])CCN(CC(=O)[O-])CCN(CC(=O)[O-])CC2)cc1C(C)C.[177Lu+3] (stereo not drawn) [^177Lu-I-2]", 0.17),
    ("COc1cccc(OC)c1-c1cc(C(=O)NC2(C(=O)O)C3CC4CC(C3)CC2C4)nn1-c1ccc(OCCCN(C)CCCN(C)C(=O)CN2CCN(CC(=O)[O-])CCN(CC(=O)[O-])CCN(CC(=O)[O-])CC2)cc1C(C)C.[177Lu+3] (stereo not drawn) [^177Lu-I-7]", 0.13),
    ("COc1cccc(OC)c1-c1cc(C(=O)NC2(C(=O)O)C3CC4CC(C3)CC2C4)nn1-c1ccc(N(C)CCCN(C)CCCN(C)C(=O)CN2CCN(CC(=O)[O-])CCN(CC(=O)[O-])CCN(CC(=O)[O-])CC2)cc1C(C)C.[177Lu+3] (stereo not drawn) [^177Lu-I-1]", 0.33),
    ("COc1cccc(OC)c1-c1cc(C(=O)NC2(C(=O)O)C3CC4CC(C3)CC2C4)nn1-c1ccc(NC(=O)CCCN(C)CCCN(C)C(=O)CN2CCN(CC(=O)[O-])CCN(CC(=O)[O-])CCN(CC(=O)[O-])CC2)cc1C(C)C.[177Lu+3] (stereo not drawn) [^177Lu-I-5]", 0.23),
]

Below: the item to evaluate.
Input line: Input COc1cccc(OC)c1-c1cc(C(=O)NC2(C(=O)O)C3CC4CC(C3)CC2C4)nn1-c1ccc(C(=O)N(C)CCCN(C)CCCN(C)C(=O)CN2CCN(CC(=O)[O-])CCN(CC(=O)[O-])CCN(CC(=O)[O-])CC2)cc1C(C)C.[177Lu+3] (stereo not drawn) [^177Lu-C-2, reference compound] , output reported % ID/g (72 h) Lung.
Output line: 0.23

----------
system: ASPC-1 tumor-bearing mice; assay: Biodistribution of radionuclide labeled complexes in ASPC-1 tumor-bearing mice; format: in vivo, BALB/c nude mice; details: Intestine, 4 h
This listing pairs compounds with measured % ID/g (4 h) Intestine.
Answer by giving the amount and then stating its unit.

# compound, readout_name, endpoint_value
records = [
    ("COc1cccc(OC)c1-c1cc(C(=O)NC2(C(=O)O)C3CC4CC(C3)CC2C4)nn1-c1ccc(OCCCN(C)CCCN(C)C(=O)CN2CCN(CC(=O)[O-])CCN(CC(=O)[O-])CCN(CC(=O)[O-])CC2)cc1C(C)C.[177Lu+3] (stereo not shown) [^177Lu-I-7]", "% ID/g (4 h) Intestine", "1.69 ± 0.45 % ID/g"),
    ("COc1cccc(OC)c1-c1cc(C(=O)NC2(C(=O)O)C3CC4CC(C3)CC2C4)nn1-c1ccc(NC(=O)CCCN(C)CCCN(C)C(=O)CN2CCN(CC(=O)[O-])CCN(CC(=O)[O-])CCN(CC(=O)[O-])CC2)cc1C(C)C.[177Lu+3] (stereo not shown) [^177Lu-I-5]", "% ID/g (4 h) Intestine", "1.81 ± 0.87 % ID/g"),
    ("COc1cccc(OC)c1-c1cc(C(=O)NC2(C(=O)O)C3CC4CC(C3)CC2C4)nn1-c1ccc(C(=O)N(C)CCCN(C)CCCN(C)C(=O)CN2CCN(CC(=O)[O-])CCN(CC(=O)[O-])CCN(CC(=O)[O-])CC2)cc1C(C)C.[177Lu+3] (stereo not shown) [^177Lu-C-2, reference compound]", "% ID/g (4 h) Intestine", "1.62 ± 0.41 % ID/g"),
]

# next compound below
Input line: Provide % ID/g (4 h) Intestine value for the following compound: COc1cccc(OC)c1-c1cc(C(=O)NC2(C(=O)O)C3CC4CC(C3)CC2C4)nn1-c1ccc(N(C)CCCN(C)CCCN(C)C(=O)CN2CCN(CC(=O)[O-])CCN(CC(=O)[O-])CCN(CC(=O)[O-])CC2)cc1C(C)C.[177Lu+3] (stereo not shown) [^177Lu-I-1]
Output line: 0.98 ± 0.2 % ID/g

----------
tested on: ASPC-1 tumor-bearing mice; experiment: Biodistribution of radionuclide labeled complexes in ASPC-1 tumor-bearing mice; format: in vivo, BALB/c nude mice; details: Femur, 72 h
readout_name: % ID/g (72 h) Femur (% ID/g)
Number in % ID/g, nothing else.

# molecule, % ID/g (72 h) Femur (% ID/g)
measured = [
    ("COc1cccc(OC)c1-c1cc(C(=O)NC2(C(=O)O)C3CC4CC(C3)CC2C4)nn1-c1ccc(NC(=O)CCCN(C)CCCN(C)C(=O)CN2CCN(CC(=O)[O-])CCN(CC(=O)[O-])CCN(CC(=O)[O-])CC2)cc1C(C)C.[177Lu+3] (stereo not drawn) [^177Lu-I-5]", 0.17),
    ("COc1cccc(OC)c1-c1cc(C(=O)NC2(C(=O)O)C3CC4CC(C3)CC2C4)nn1-c1ccc(OCCCN(C)CCCN(C)C(=O)CN2CCN(CC(=O)[O-])CCN(CC(=O)[O-])CCN(CC(=O)[O-])CC2)cc1C(C)C.[177Lu+3] (stereo not drawn) [^177Lu-I-7]", 0.06),
    ("COc1cccc(OC)c1-c1cc(C(=O)NC2(C(=O)O)C3CC4CC(C3)CC2C4)nn1-c1ccc(C(=O)N(C)CCCN(C)CCCN(C)C(=O)CN2CCN(CC(=O)[O-])CCN(CC(=O)[O-])CCN(CC(=O)[O-])CC2)cc1C(C)C.[177Lu+3] (stereo not drawn) [^177Lu-C-2, reference compound]", 0.12),
]

Input line: Consider the molecule COc1cccc(OC)c1-c1cc(C(=O)NC2(C(=O)O)C3CC4CC(C3)CC2C4)nn1-c1ccc(NCCOCCOCCNC(=O)CN2CCN(CC(=O)[O-])CCN(CC(=O)[O-])CCN(CC(=O)[O-])CC2)cc1C(C)C.[177Lu+3] (stereo not drawn) [^177Lu-I-10] . State its measured % ID/g (72 h) Femur.
Output line: 0.02

Input line: Supply % ID/g (72 h) Femur value. Item: COc1cccc(OC)c1-c1cc(C(=O)NC2(C(=O)O)C3CC4CC(C3)CC2C4)nn1-c1ccc(N(C)CCCN(C)CCCN(C)C(=O)CN2CCN(CC(=O)[O-])CCN(CC(=O)[O-])CCN(CC(=O)[O-])CC2)cc1C(C)C.[177Lu+3] (stereo not drawn) [^177Lu-I-1]
Output line: 0.15

Input line: Tell me % ID/g (72 h) Femur reported for COc1cccc(OC)c1-c1cc(C(=O)NC2(C(=O)O)C3CC4CC(C3)CC2C4)nn1-c1ccc(NCCCN(C)CCCNC(=O)CN2CCN(CC(=O)[O-])CCN(CC(=O)[O-])CCN(CC(=O)[O-])CC2)cc1C(C)C.[177Lu+3] (stereo not drawn) [^177Lu-I-2]
Output line: 0.111

----------
test system: ASPC-1 tumor-bearing mice; assay: Biodistribution of radionuclide labeled complexes in ASPC-1 tumor-bearing mice; type: in vivo, BALB/c nude mice; conditions: Muscle, 72 h
readout_name: % ID/g (72 h) Muscle (% ID/g)
Quick note: give the figure in % ID/g, leave out the unit.

# compound, system_name, readout_name, endpoint_value
records = [
    ("COc1cccc(OC)c1-c1cc(C(=O)NC2(C(=O)O)C3CC4CC(C3)CC2C4)nn1-c1ccc(C(=O)N(C)CCCN(C)CCCN(C)C(=O)CN2CCN(CC(=O)[O-])CCN(CC(=O)[O-])CCN(CC(=O)[O-])CC2)cc1C(C)C.[177Lu+3] (stereo not drawn) [^177Lu-C-2, reference compound]", "ASPC-1 tumor-bearing mice", "% ID/g (72 h) Muscle", 0.06),
    ("COc1cccc(OC)c1-c1cc(C(=O)NC2(C(=O)O)C3CC4CC(C3)CC2C4)nn1-c1ccc(OCCCN(C)CCCN(C)C(=O)CN2CCN(CC(=O)[O-])CCN(CC(=O)[O-])CCN(CC(=O)[O-])CC2)cc1C(C)C.[177Lu+3] (stereo not drawn) [^177Lu-I-7]", "ASPC-1 tumor-bearing mice", "% ID/g (72 h) Muscle", 0.011),
    ("COc1cccc(OC)c1-c1cc(C(=O)NC2(C(=O)O)C3CC4CC(C3)CC2C4)nn1-c1ccc(NCCCN(C)CCCNC(=O)CN2CCN(CC(=O)[O-])CCN(CC(=O)[O-])CCN(CC(=O)[O-])CC2)cc1C(C)C.[177Lu+3] (stereo not drawn) [^177Lu-I-2]", "ASPC-1 tumor-bearing mice", "% ID/g (72 h) Muscle", 0.05),
    ("COc1cccc(OC)c1-c1cc(C(=O)NC2(C(=O)O)C3CC4CC(C3)CC2C4)nn1-c1ccc(NC(=O)CCCN(C)CCCN(C)C(=O)CN2CCN(CC(=O)[O-])CCN(CC(=O)[O-])CCN(CC(=O)[O-])CC2)cc1C(C)C.[177Lu+3] (stereo not drawn) [^177Lu-I-5]", "ASPC-1 tumor-bearing mice", "% ID/g (72 h) Muscle", 0.05),
]

Input line: For COc1cccc(OC)c1-c1cc(C(=O)NC2(C(=O)O)C3CC4CC(C3)CC2C4)nn1-c1ccc(NCCOCCOCCNC(=O)CN2CCN(CC(=O)[O-])CCN(CC(=O)[O-])CCN(CC(=O)[O-])CC2)cc1C(C)C.[177Lu+3] (stereo not drawn) [^177Lu-I-10] , write its % ID/g (72 h) Muscle.
Output line: 0.011

Input line: Input COc1cccc(OC)c1-c1cc(C(=O)NC2(C(=O)O)C3CC4CC(C3)CC2C4)nn1-c1ccc(N(C)CCCN(C)CCCN(C)C(=O)CN2CCN(CC(=O)[O-])CCN(CC(=O)[O-])CCN(CC(=O)[O-])CC2)cc1C(C)C.[177Lu+3] (stereo not drawn) [^177Lu-I-1] , output reported % ID/g (72 h) Muscle.
Output line: 0.06
